Below are compounds with their pKi as measured on UniProt Q64663.
pKi: −log10 of the molar value.
MEASURED_PARAMETER: pKi

> print(dat)
                                   compound    assay.system  reading
1  O=C(c1cccc(C(F)(F)F)c1Cl)N1[C@H]2CC[C@@H]1c1nnc(-c3ccccn3)n1C2 [Example 41]  UniProt Q64663     8.10
2  Cc1c(C(=O)N2[C@H]3CC[C@@H]2c2nnc(-c4cscn4)n2C3)cccc1C(F)(F)F [Example 53]  UniProt Q64663     8.10
3  Cc1cc(-c2nnc3n2C[C@@H]2CC[C@H]3N2C(=O)c2cccc(C(F)(F)F)c2Cl)[nH]n1 [Example 51]  UniProt Q64663     8.10
4  O=C(c1cccc(C(F)(F)F)c1Cl)N1[C@H]2CC[C@@H]1c1nnc(-c3ccc(F)cc3)n1C2 [Example 40]  UniProt Q64663     7.45
5  O=C(c1cccc(C(F)(F)F)c1Cl)N1[C@H]2CC[C@@H]1c1nnc(-c3cscn3)n1C2 [Example 49]  UniProt Q64663     8.40
6  O=C(c1ccc(F)c(C(F)(F)F)c1Cl)N1[C@H]2CC[C@@H]1c1nnc(-c3cscn3)n1C2 [Example 52]  UniProt Q64663     8.20
7  O=C(c1cccc(C(F)(F)F)c1Cl)N1[C@H]2CC[C@@H]1c1nnc(-c3ncccn3)n1C2 [Example 46]  UniProt Q64663     8.20
8  O=C(c1cccc(C(F)(F)F)c1Cl)N1[C@H]2CC[C@@H]1c1nnc(-c3cnccn3)n1C2 [Example 42]  UniProt Q64663     8.10
9  O=C(c1ccc(Cl)c(F)c1Cl)N1[C@H]2CC[C@@H]1c1nnc(-c3cscn3)n1C2 [Example 54]  UniProt Q64663     8.10

---

- ASSAY_SYSTEM: UniProtKB Q99572
pKi: −log10 of the molar value.
Recorded pKi by entry
MEASURED_PARAMETER: pKi

> print(dat)
                                        smi  reading
1  O=C(c1cccc(C(F)(F)F)c1Cl)N1[C@H]2CC[C@@H]1c1nnc(-c3cnccn3)n1C2     7.90
2  Cc1cc(-c2nnc3n2C[C@@H]2CC[C@H]3N2C(=O)c2cccc(C(F)(F)F)c2Cl)[nH]n1     7.40
3  Cc1ncsc1-c1nnc2n1C[C@@H]1CC[C@H]2N1C(=O)c1cccc(C(F)(F)F)c1Cl     6.90
4  O=C(c1cccc(C(F)(F)F)c1Cl)N1[C@H]2CC[C@@H]1c1nnc(-c3cncs3)n1C2     7.45
5  O=C(c1ccc(F)c(C(F)(F)F)c1Cl)N1[C@H]2CC[C@@H]1c1nnc(-c3cscn3)n1C2     7.50

---

Below are compounds with their Ki as measured on UniProt:Q99572.
MEASURED_PARAMETER: Ki (µM)

> print(dat)
                                         smi    assay.system  reading
 1  O=C(c1cccc(C(F)(F)F)c1Cl)N1[C@H]2CC[C@@H]1c1nnc(-c3cccs3)n1C2  UniProt:Q99572    0.004
 2  O=C(c1cccc(C(F)(F)F)c1Cl)N1[C@H]2CC[C@@H]1c1nnc(-c3ccc(Cl)s3)n1C2  UniProt:Q99572   0.0251
 3  O=C(c1cccc(C(F)(F)F)c1Cl)N1[C@H]2CC[C@@H]1c1nnc(-c3cccnc3)n1C2  UniProt:Q99572   0.0398
 4  O=C(c1cccc(C(F)(F)F)c1Cl)N1[C@H]2CC[C@@H]1c1nnc(-c3ccccn3)n1C2  UniProt:Q99572   0.0126
 5  O=C(c1ccc(F)c(Cl)c1Cl)N1[C@H]2CC[C@@H]1c1nnc(-c3cnccn3)n1C2  UniProt:Q99572     0.01
 6  O=C(c1cccc(C(F)(F)F)c1Cl)N1[C@H]2CC[C@@H]1c1nnc(-c3ccsc3)n1C2  UniProt:Q99572     0.01
 7  O=C(c1cccc(C(F)(F)F)c1Cl)N1[C@H]2CC[C@@H]1c1nnc(-c3cscn3)n1C2  UniProt:Q99572     0.02
 8  O=C(c1cccc(C(F)(F)F)c1Cl)N1[C@H]2CC[C@@H]1c1nnc(-c3ccc(F)cc3)n1C2  UniProt:Q99572   0.0219
 9  Cc1c(C(=O)N2[C@H]3CC[C@@H]2c2nnc(-c4cscn4)n2C3)cccc1C(F)(F)F  UniProt:Q99572   0.0126
10  O=C(c1cccc(C(F)(F)F)c1Cl)N1[C@H]2CC[C@@H]1c1nnc(-c3ccc(F)cn3)n1C2  UniProt:Q99572   0.0126
11  O=C(c1cccc(C(F)(F)F)c1Cl)N1[C@H]2CC[C@@H]1c1nnc(-c3ncccn3)n1C2  UniProt:Q99572   0.0158
12  O=C(c1ccnc(C(F)(F)F)c1Cl)N1[C@H]2CC[C@@H]1c1nnc(-c3ccc(Cl)s3)n1C2  UniProt:Q99572   0.0219
13  O=C(c1ccc(Cl)c(F)c1Cl)N1[C@H]2CC[C@@H]1c1nnc(-c3cscn3)n1C2  UniProt:Q99572   0.0251
14  O=C(c1cccc(C(F)(F)F)c1Cl)N1[C@H]2CC[C@@H]1c1nnc(-c3ccc[nH]3)n1C2  UniProt:Q99572   0.0063

---

- ASSAY_SYSTEM: human P2X7 (Homo sapiens (Human))
- Sequence (Q99572 whole entry): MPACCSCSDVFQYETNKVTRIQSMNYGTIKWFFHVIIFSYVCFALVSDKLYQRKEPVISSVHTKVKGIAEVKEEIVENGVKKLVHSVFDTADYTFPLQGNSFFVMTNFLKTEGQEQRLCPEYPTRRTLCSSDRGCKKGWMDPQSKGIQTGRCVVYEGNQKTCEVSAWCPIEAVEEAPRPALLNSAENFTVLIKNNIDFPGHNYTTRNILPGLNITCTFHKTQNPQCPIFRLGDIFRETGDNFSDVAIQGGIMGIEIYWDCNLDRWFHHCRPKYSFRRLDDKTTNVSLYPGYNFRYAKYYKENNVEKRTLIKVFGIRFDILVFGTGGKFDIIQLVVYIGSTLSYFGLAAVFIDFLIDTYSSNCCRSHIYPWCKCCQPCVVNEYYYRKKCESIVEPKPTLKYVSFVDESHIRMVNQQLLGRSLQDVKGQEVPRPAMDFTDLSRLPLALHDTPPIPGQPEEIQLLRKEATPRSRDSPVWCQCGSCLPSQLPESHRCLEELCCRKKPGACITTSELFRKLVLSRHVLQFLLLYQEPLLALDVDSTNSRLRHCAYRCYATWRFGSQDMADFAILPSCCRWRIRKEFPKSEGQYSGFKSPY
- PROTOCOL: Ca2+ flux (FLIPR) in 1321N1 cells expressing recombinant human P2X7 channel
- PROTOCOL_CONDITIONS: human P2X7, 250 μM BzATP
pIC50: −log10 of the molar value.
MEASURED_PARAMETER: pIC50

> print(dat)
                                         smi  reading
 1  O=C(c1cccc(C(F)(F)F)c1Cl)N1[C@H]2CC[C@@H]1c1nnc(-c3ccccn3)n1C2     8.20
 2  Cc1ncsc1-c1nnc2n1C[C@@H]1CC[C@H]2N1C(=O)c1cccc(C(F)(F)F)c1Cl     7.00
 3  O=C(c1cccc(C(F)(F)F)c1Cl)N1[C@H]2CC[C@@H]1c1nnc(-c3ncccn3)n1C2     7.82
 4  O=C(c1cccc(C(F)(F)F)c1Cl)N1[C@H]2CC[C@@H]1c1nnc(-c3cccs3)n1C2     8.59
 5  O=C(c1ccc(F)c(Cl)c1Cl)N1[C@H]2CC[C@@H]1c1nnc(-c3cnccn3)n1C2     7.69
 6  O=C(c1cccc(C(F)(F)F)c1Cl)N1[C@H]2CC[C@@H]1c1nnc(-c3ccc(Cl)s3)n1C2     7.77
 7  O=C(c1cccc(C(F)(F)F)c1Cl)N1[C@H]2CC[C@@H]1c1nnc(-c3ccc[nH]3)n1C2     7.71
 8  O=C(c1cccc(C(F)(F)F)c1Cl)N1[C@H]2CC[C@@H]1c1nnc(-c3cncs3)n1C2     7.01
 9  O=C(c1cccc(C(F)(F)F)c1Cl)N1[C@H]2CC[C@@H]1c1nnc(-c3ccsc3)n1C2     8.77
10  Cc1cc(-c2nnc3n2C[C@@H]2CC[C@H]3N2C(=O)c2cccc(C(F)(F)F)c2Cl)[nH]n1     7.84
11  O=C(c1ccc(F)c(C(F)(F)F)c1Cl)N1[C@H]2CC[C@@H]1c1nnc(-c3cscn3)n1C2     7.99
12  O=C(c1cccc(C(F)(F)F)c1Cl)N1[C@H]2CC[C@@H]1c1nnc(-c3ccc(F)cc3)n1C2     7.90
13  O=C(c1cccc(C(F)(F)F)c1Cl)N1[C@H]2CC[C@@H]1c1nnc(-c3cnccn3)n1C2     7.70
14  O=C(c1cccc(C(F)(F)F)c1Cl)N1[C@H]2CC[C@@H]1c1nnc(-c3cccnc3)n1C2     7.88
15  O=C(c1ccnc(C(F)(F)F)c1Cl)N1[C@H]2CC[C@@H]1c1nnc(-c3ccc(Cl)s3)n1C2     7.83
16  Cc1nc(-c2nnc3n2C[C@@H]2CC[C@H]3N2C(=O)c2cccc(C(F)(F)F)c2Cl)cs1     7.51
17  Cc1c(C(=O)N2[C@H]3CC[C@@H]2c2nnc(-c4cscn4)n2C3)cccc1C(F)(F)F     8.51
18  O=C(c1ccc(Cl)c(F)c1Cl)N1[C@H]2CC[C@@H]1c1nnc(-c3cscn3)n1C2     8.21
19  O=C(c1cccc(C(F)(F)F)c1Cl)N1[C@H]2CC[C@@H]1c1nnc(-c3cscn3)n1C2     8.30
20  O=C(c1cccc(C(F)(F)F)c1Cl)N1[C@H]2CC[C@@H]1c1nnc(-c3ccc(F)cn3)n1C2     7.88

---

- ASSAY_SYSTEM: rat P2X7 (Rattus norvegicus (Rat))
- Sequence (Q64663 whole entry): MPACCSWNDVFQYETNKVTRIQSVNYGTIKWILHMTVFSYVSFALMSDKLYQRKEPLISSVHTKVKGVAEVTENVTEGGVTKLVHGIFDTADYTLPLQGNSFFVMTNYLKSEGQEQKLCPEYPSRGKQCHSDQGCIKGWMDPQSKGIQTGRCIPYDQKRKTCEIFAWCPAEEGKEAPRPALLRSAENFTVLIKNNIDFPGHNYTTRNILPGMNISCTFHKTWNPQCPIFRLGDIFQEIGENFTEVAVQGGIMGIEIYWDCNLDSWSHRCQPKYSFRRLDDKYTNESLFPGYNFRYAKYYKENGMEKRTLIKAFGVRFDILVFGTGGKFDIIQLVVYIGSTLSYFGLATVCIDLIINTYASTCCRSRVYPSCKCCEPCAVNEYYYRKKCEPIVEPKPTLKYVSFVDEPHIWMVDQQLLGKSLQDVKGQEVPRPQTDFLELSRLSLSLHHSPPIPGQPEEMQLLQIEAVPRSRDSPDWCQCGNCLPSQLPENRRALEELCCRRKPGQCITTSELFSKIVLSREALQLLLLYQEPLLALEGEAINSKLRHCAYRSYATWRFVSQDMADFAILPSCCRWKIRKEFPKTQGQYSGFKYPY
- PROTOCOL: Ca2+ flux (FLIPR) in 1321N1 cells expressing recombinant rat P2X7 channel
- PROTOCOL_CONDITIONS: rat P2X7, 250 μM BzATP
pIC50: −log10 of the molar value.
Mark condition not met for pIC50 values under 6, and condition met for everything at or above.

> print(dat)
                                   compound         class.name
1  O=C(c1cccc(C(F)(F)F)c1Cl)N1[C@H]2CC[C@@H]1c1nnc(-c3cccs3)n1C2 [Example 61]  condition not met
2  O=C(c1cccc(C(F)(F)F)c1Cl)N1[C@H]2CC[C@@H]1c1nnc(-c3ccc[nH]3)n1C2 [Example 62]  condition not met
3  O=C(c1cccc(C(F)(F)F)c1Cl)N1[C@H]2CC[C@@H]1c1nnc(-c3cnccn3)n1C2 [Example 42]      condition met
4  O=C(c1cccc(C(F)(F)F)c1Cl)N1[C@H]2CC[C@@H]1c1nnc(-c3cscn3)n1C2 [Example 49]      condition met
5  Cc1c(C(=O)N2[C@H]3CC[C@@H]2c2nnc(-c4cscn4)n2C3)cccc1C(F)(F)F [Example 53]  condition not met
6  O=C(c1ccc(Cl)c(F)c1Cl)N1[C@H]2CC[C@@H]1c1nnc(-c3cscn3)n1C2 [Example 54]  condition not met
7  O=C(c1ccc(F)c(C(F)(F)F)c1Cl)N1[C@H]2CC[C@@H]1c1nnc(-c3cscn3)n1C2 [Example 52]      condition met

Attribution: patent US9102686B2
